Target: AR H874Y (Homo sapiens, UniProt P10275, H875Y)
Sequence (P10275 whole entry H875Y): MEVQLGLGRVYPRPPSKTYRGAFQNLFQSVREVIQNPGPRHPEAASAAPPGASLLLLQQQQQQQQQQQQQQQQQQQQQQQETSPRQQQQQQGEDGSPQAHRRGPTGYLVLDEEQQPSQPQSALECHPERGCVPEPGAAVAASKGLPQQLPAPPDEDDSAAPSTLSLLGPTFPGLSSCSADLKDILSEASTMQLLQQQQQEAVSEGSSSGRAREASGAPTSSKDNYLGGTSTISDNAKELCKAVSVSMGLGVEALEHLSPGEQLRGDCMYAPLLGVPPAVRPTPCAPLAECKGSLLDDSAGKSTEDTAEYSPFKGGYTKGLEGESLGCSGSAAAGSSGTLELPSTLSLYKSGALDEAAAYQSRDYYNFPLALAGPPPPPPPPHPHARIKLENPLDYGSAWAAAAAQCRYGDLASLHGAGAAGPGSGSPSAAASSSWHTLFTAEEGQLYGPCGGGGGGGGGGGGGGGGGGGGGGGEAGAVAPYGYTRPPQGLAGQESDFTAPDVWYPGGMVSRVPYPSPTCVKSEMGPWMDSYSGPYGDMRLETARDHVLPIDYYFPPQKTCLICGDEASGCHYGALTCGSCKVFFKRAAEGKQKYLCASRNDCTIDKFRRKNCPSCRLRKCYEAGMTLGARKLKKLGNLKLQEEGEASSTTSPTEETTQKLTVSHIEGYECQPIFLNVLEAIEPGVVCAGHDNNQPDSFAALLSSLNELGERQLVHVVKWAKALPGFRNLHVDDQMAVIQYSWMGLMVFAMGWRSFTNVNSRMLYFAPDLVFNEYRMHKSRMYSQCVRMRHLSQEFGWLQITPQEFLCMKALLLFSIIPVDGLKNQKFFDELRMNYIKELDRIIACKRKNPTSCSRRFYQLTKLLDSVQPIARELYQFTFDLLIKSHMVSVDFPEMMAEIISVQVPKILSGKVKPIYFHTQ
Experiment: Luciferase transcriptional reporter assay, mutant AR, HepG2, antagonist mode
Conditions: HepG2, 90 pM R1881, 48 hours; * denotes incomplete inhibition (otherwise 100%); read-out: Antagonism; IC50, AR construct H874Y
Procedure: HepG2 cells were maintained in EMEM supplemented with 10% FBS. One day before transfection, the media was changed to EMEM with 10% CSS. […] Cells were then trypsinized, counted and resuspended at 500,000 cells/mL. […] The plates were then assayed using SteadyGlo and read on the Envision. Percent Stimulation and Inhibition is determined and analyzed using GraphPad Prism. All values are calculated relative to the activity of R1881 induced androgen receptor activity (n≧3).
pIC50: −log10 of the molar value.

molecule: N#Cc1ncc(N2C(=O)C3(CCC3)N(c3ccc(OC4CCNCC4)cc3)C2=S)cc1C(F)(F)F [Cpd 35]
test-system: AR H874Y (Homo sapiens, UniProt P10275, H875Y)
pIC50: 5.71

---

Target: F876L mutant Androgen Receptor (AR-F876L) (Homo sapiens, UniProt P10275, F877L)
Construct: expressed in transfected cells; host or cells: LNCaP (LNCaP F876L)
Sequence (P10275 whole entry F877L): as the sequence (P10275 whole entry H875Y) above, with Y875H, F877L counted along it
Assay: LNCaP-AR-F876L AG reporter assay (ARE firefly luciferase, agonist mode)
Type: cell-based
Conditions: read-out: LNCaP-AR-F876L AG MAX % Stim
Catalogue of Emax readings, one per entry.
measured-quantity: Emax (%)

molecule: N#Cc1ncc(N2C(=O)C3(CCC3)N(c3ccc(Oc4ccncn4)cc3)C2=S)cc1C(F)(F)F [Cpd 71]
test-system: F876L mutant Androgen Receptor (AR-F876L) (Homo sapiens, UniProt P10275, F877L)
uom: %
experimental-value: 0.9

molecule: N#Cc1ncc(N2C(=O)C3(CCC3)N(c3ccc(O)cc3F)C2=S)cc1C(F)(F)F [Cpd 47]
test-system: F876L mutant Androgen Receptor (AR-F876L) (Homo sapiens, UniProt P10275, F877L)
uom: %
experimental-value: 0.4

molecule: N#Cc1ncc(N2C(=O)C3(CCC3)N(c3ccc(C(=O)NCc4ccccn4)c(F)c3)C2=S)cc1C(F)(F)F [Cpd 44]
test-system: F876L mutant Androgen Receptor (AR-F876L) (Homo sapiens, UniProt P10275, F877L)
uom: %
experimental-value: 0

molecule: Cc1cc(N2C(=O)C3(CCC3)N(c3ccc(OC4CCOCC4)cc3)C2=S)cnc1C#N [Cpd 87]
test-system: F876L mutant Androgen Receptor (AR-F876L) (Homo sapiens, UniProt P10275, F877L)
uom: %
experimental-value: 0.9

molecule: Cc1cc(N2C(=O)C3(CCC3)N(c3ccc(C(=O)NC4CCOCC4)c(F)c3)C2=S)cnc1C#N [Cpd 2]
test-system: F876L mutant Androgen Receptor (AR-F876L) (Homo sapiens, UniProt P10275, F877L)
uom: %
experimental-value: -0.4

molecule: CNC(=O)c1ccc(N2C(=S)N(c3cnc(C#N)c(C)c3)C(=O)C2(C)C)cc1F [Cpd 12]
test-system: F876L mutant Androgen Receptor (AR-F876L) (Homo sapiens, UniProt P10275, F877L)
uom: %
experimental-value: -0.3

molecule: N#Cc1ncc(N2C(=O)C3(CCC3)N(c3ccc4ccccc4c3)C2=S)cc1C(F)(F)F [Cpd 18]
test-system: F876L mutant Androgen Receptor (AR-F876L) (Homo sapiens, UniProt P10275, F877L)
uom: %
experimental-value: 0

molecule: N#Cc1ncc(N2C(=O)C3(CCC3)N(c3ccc(C(=O)NCc4cccs4)c(F)c3)C2=S)cc1C(F)(F)F [Cpd 59]
test-system: F876L mutant Androgen Receptor (AR-F876L) (Homo sapiens, UniProt P10275, F877L)
uom: %
experimental-value: 0.7
